- experimental system: B-Raf kinase (Homo sapiens, UniProt P15056)
- Construct: GST (N); purchased Sigma
- Sequence (P15056 416-766): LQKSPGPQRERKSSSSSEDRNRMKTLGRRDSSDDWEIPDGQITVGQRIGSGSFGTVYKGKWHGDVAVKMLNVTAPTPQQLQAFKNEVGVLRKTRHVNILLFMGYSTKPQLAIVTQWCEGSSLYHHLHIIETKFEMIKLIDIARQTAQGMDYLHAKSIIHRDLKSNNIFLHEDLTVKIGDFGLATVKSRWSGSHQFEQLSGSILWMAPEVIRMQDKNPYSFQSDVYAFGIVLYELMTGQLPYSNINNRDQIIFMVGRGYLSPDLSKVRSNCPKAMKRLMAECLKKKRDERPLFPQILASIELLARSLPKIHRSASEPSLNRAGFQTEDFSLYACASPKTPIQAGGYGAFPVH
- assay overview: Biochemical assay for B-Raf.1 (coupled pyruvate kinase/lactate dehydrogenase)
- run parameters: read-out: BRAF.1 IC50
pIC50: −log10 of the molar value.
quantity kind: pIC50

Cc1ncc(NC(=O)NCCC2(C)CC2)cc1-c1nccc(-c2ccnc(NC(=O)C3CC3)c2)n1 | ≥ 7.00
Cc1cc(F)c(NC(=O)NCCC2(C)CC2)cc1-c1cccc(-c2cc(NC(=O)C3CC3)ncn2)c1 | ≥ 7.00
CC(=O)Nc1cc(-c2cc(-c3cc(NC(=O)NCCCC(F)(F)F)c(F)cc3C)cc(C3CC3)n2)ccn1 | ≥ 7.00
Cc1cc(F)c(NC(=O)NCCC2(C)CC2)cc1-c1cc(OCCO)nc(-c2ccnc3[nH]ncc23)c1 | ≥ 7.00
COC(=O)Nc1cc(-c2cncc(-c3cc(NC(=O)N4CCCCC4)ccc3C)c2)ccn1 | < 6.00

Form field: reported pIC50 of `COC(=O)Nc1cc(-c2cc(-c3cc(NC(=O)N4CCC(C)(C)CC4)cnc3C)cc(OCCO)n2)ccn1` 6.30 to 7.00

Form field: reported pIC50 of `Cc1cc(F)c(NC(=O)NCCC2(C)CC2)cc1-c1ccnc(-c2ccnc3c2CC(=O)N3)c1` ≥ 7.00

Form field: reported pIC50 of `COC(=O)Nc1cc(-c2cnnc(-c3cccc(NC(=O)N4CC[C@H](OC)C4)c3)c2)ccn1` < 6.00

Just for reference, patent US20230357179A1 is where these values come from.
